Test system: PSMA Fab
Sequence (as listed by the source): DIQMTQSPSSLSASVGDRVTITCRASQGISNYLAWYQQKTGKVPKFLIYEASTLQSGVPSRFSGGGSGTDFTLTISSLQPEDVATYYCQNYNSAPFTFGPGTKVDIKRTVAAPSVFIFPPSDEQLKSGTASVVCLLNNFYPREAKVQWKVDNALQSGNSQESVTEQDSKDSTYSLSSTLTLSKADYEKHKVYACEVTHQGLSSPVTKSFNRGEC
Sequence (as listed by the source): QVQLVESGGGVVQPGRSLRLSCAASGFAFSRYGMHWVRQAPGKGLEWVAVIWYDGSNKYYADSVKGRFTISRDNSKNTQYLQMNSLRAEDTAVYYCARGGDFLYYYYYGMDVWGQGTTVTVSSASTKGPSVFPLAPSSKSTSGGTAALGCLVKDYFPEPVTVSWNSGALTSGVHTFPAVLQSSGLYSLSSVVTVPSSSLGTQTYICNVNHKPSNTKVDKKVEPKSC
Test: Phage binding ELISA, PSMA Fab, with or without PSMA antigen (peptide-179 and peptide-180 libraries); also: unit not given here
Settings: peptide-180 library clonal phage; background (no Fab)
Everything with Phage binding ELISA Background signal lower than 0.06 is condition not met; everything else, including exactly 0.06, is condition met.

Field: example entries. Status: answers known.
SUBSTANCE | TESTED TARGET | CLASS ASSIGNMENT
Phage-2801 (SDNWCKPEWMCVGH) | PSMA Fab | condition met
Phage-2799 (ESKWCVPTWMCAEN) | PSMA Fab | condition not met
Phage-2866 (TSPACVPSWMCVGF) | PSMA Fab | condition not met

In: Tell me whether Phage binding ELISA Background signal is at least 0.06 here: Phage-2809 (VTKLCIPEWMCVIQ)
Out: condition not met

In: Tell me whether Phage binding ELISA Background signal is at least 0.06 here: Phage-2810 (MDIWCKPRWMCEEY)
Out: condition met

In: Tell me whether Phage binding ELISA Background signal is at least 0.06 here: Phage-2804 (EGKWCTPTWMCQGF)
Out: condition met

In: Tell me whether Phage binding ELISA Background signal is at least 0.06 here: Phage-2867 (VLPMCSPPWMCIGL)
Out: condition met

---

Target: PSMA Fab (SEQ ID NOs: 19, 20)
Assay: PSMA Fab binding to peptides, ELISA
Settings: Table 39; PSMA Fab binding to biotinylated peptide, ELISA
VALUE KIND: EC50 (nM)
API: value field is a number in nM; no unit string.

In: Give PSMA Fab (SEQ ID NOs: 19, 20) EC50 for LMKWCTPRWMCAAE [Peptide-179]
Out: 120

---

Target: PSMA Fab (SEQ ID NOs: 19, 20) binding to the PSMA antigen
Sequence (Q04609 whole entry partner): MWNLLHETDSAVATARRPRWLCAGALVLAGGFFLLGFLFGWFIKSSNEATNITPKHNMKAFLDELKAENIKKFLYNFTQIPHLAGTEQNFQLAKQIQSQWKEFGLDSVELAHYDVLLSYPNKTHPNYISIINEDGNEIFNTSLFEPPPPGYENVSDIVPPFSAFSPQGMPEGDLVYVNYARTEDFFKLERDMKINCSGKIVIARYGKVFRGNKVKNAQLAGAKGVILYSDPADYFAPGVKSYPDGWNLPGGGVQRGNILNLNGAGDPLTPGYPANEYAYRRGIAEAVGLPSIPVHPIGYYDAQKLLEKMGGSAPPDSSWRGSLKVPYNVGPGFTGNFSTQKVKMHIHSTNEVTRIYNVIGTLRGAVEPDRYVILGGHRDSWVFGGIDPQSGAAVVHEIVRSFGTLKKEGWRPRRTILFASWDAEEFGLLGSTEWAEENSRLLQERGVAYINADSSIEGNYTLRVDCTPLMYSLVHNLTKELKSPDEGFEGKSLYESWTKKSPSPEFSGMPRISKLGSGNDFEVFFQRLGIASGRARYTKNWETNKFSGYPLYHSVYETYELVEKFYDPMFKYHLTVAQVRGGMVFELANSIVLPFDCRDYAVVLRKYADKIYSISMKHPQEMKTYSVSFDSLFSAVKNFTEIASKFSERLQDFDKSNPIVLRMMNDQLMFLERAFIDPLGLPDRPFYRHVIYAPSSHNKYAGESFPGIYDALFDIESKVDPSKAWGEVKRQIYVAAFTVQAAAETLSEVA
Assay: Inhibition of PSMA Fab binding to PSMA by peptides, competition ELISA (incl. alanine scanning)
Settings: Table 38; PSMA Fab fixed at 0.3 nM, peptide 0-100 μM
Measured IC50 accompanies every entry in the list below.

Answered cases to consult:
RESIDUES | TESTED TARGET | MEAS VALUE
ILCGLYEALVSECG [Peptide-187] | PSMA Fab (SEQ ID NOs: 19, 20) binding to the PSMA antigen | > 100 µM
SCGWLRGEEFGWWC [Peptide-190] | PSMA Fab (SEQ ID NOs: 19, 20) binding to the PSMA antigen | > 100 µM

In: Fill in: IC50 of HCLGPALGPVDGDC [Peptide-189] is ___
Out: > 100 µM

---

Measured Phage binding ELISA Background signal accompanies every entry in the list below.
Tested on: PSMA Fab
Assay: Phage binding ELISA, PSMA Fab, with or without PSMA antigen (peptide-179 and peptide-180 libraries); also: unit not given here
Details: peptide-180 library clonal phage; background (no Fab)
Where no end group is shown, it is not given here.
Respond with the number and no other words.

SUBSTANCE | Phage binding ELISA Background signal
Phage-2841 (ESIRCTPAWMCVEM; not fully specified; cysteine pairing not given here) | 0.0625
Phage-2838 (HPKLCTPEWMCVIQ; not fully specified; cysteine pairing not given here) | 0.0666
Phage-2856 (VQRMCEPSWMCFGF; not fully specified; cysteine pairing not given here) | 0.0631

# ---- query substance ----
In: Fill in: Phage binding ELISA Background signal of Phage-2806 (GATWCTPTWMCTGF) is ___
Out: 0.0609
